Molecular target: mixture of three Der p 2 specific recombinant human IgE clones H10, H12, P4E (human) (UniProt P01854)
Sequence (P01854 other isoform, or with tags, fused parts or gaps): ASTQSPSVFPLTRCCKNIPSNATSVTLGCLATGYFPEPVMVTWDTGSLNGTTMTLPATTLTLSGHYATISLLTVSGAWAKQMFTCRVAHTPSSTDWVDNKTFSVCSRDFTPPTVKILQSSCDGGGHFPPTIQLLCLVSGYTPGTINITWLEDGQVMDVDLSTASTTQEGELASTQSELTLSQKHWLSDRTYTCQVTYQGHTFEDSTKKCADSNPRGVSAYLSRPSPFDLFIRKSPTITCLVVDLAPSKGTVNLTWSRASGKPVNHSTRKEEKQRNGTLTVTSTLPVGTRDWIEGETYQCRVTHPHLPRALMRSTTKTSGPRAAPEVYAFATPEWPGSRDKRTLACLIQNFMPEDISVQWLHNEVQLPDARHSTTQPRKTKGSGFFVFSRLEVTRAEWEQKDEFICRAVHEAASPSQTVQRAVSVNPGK
Test: RBL-SX38 IgE displacement, FACS

BINDER: sdAb D1 (VHH) VHH: DVQLQESGGGLVQAGGSLRLSCAASGLTFSRCDMGWFRQAPGKEREFVARISANGASTHYADFVKGRFTISRDNAKNTVYLQMNYLKPEDTAVYICAAARVPVTWQLYDYWGQGTQVTVS
Max effect/effect 1 µM: 12%
//
BINDER: sdAb B3 (VHH) VHH: DVQLQESGGGLVQAGGSLRLSCAASGFIFRLAGMSWVRQAPGKGFEWVSGITMDGSTTNYADSVKGRFTISRDNSKNRLYLQMNSLKPEDTAVYYCARGAKGGYNDPRGQGTQVTVS
Max effect/effect 1 µM: 7%

Sourced from patent US20250171562A1
